Below is a list of entries, each paired with its recorded inhibition in vivo at 25 mg/kg value.
system: cholesterol in serum; test: Effect of reducing lipid level in blood: percent inhibition of cholesterol in serum of hamsters fed 1% cholesterol and 0.5% cholic acid diet; format: in vivo, Male golden Syrian hamsters; conditions: Mesocricetus auratus, po, 120 h, orally once a day for 5 days, relative to control group
Please respond with the number in % and leave the unit unwritten.

As a guide, the following entries are already answered.
CCCCCCCCc1ccc(NC(=O)Nc2c(CC)cccc2CC)cc1 [compound 7]; 48
CCCCCCCCc1ccc(NC(=O)Nc2c(C(C)C)cccc2C(C)C)cc1 [Compound No. 8]; 55
CCCCCCCCc1ccc(NC(=O)Nc2c(C)cccc2C)cc1 [compound 5]; 44
CCCCCc1ccc(NC(=O)Nc2c(C(C)C)cccc2C(C)C)cc1 [compound 16]; 34
CCCCCCCCc1ccc(NC(=O)Nc2c(Br)cccc2Br)cc1 [compound 4]; 55

Endpoint output: inhibition in vivo at 25 mg/kg of CCCCCCCCCCc1ccc(NC(=O)Nc2c(C(C)C)cccc2C(C)C)cc1 [compound 20] . Value?
59

Try this compound too: CCCCCCCCc1ccc(NC(=O)Nc2c(Cl)cccc2Cl)cc1 [Compound No. 2]
49

Again, but for CCCCCCCCc1ccccc1NC(=O)Nc1c(C(C)C)cccc1C(C)C [compound 13]
54

Same question for CCCCCCCCc1ccc(NC(=O)Nc2c(Cl)ccc(C)c2Cl)cc1 [compound 11] please.
47

---

test: Acute toxicity test; conditions: rat, in vivo, po; P.O., suspended in 1% tragacanth solution, SD male and female rats, seven day observation
readout: LD50 at 168 h

If you can, please state the reported LD50 at 168 h value of CCCCCCCCc1ccc(NC(=O)Nc2c(C(C)C)cccc2C(C)C)cc1 .
> 2000 mg/kg

---

target: ACAT (acyl coenzyme cholesterol acyltransferase); assay: ACAT inhibitory action in hamster microsomes (cholesteryl-[14C] oleate formation); conditions: radio-labelled oleoyl coenzyme A
readout: pIC50
Here pIC50 is given on a logarithmic scale as minus log10 of the concentration in mol/L.

CCCCCCc1ccc(NC(=O)Nc2c(C(C)C)cccc2C(C)C)cc1 [compound 17]; 7.96

Request the reported pIC50 associated with CCCCCCCCCc1ccc(NC(=O)Nc2c(C(C)C)cccc2C(C)C)cc1 [Compound No. 19]
8.00

Would you kindly repeat that for CCCCCCCCc1ccc(NC(=O)Nc2c(C(C)C)cccc2C(C)C)cc1 [Compound No. 8] ?
8.40

Then CCCCCCCc1ccc(NC(=O)Nc2c(C(C)C)cccc2C(C)C)cc1 [compound 18] ?
8.22

# repeat for CCCCCCCCCCc1ccc(NC(=O)Nc2c(C(C)C)cccc2C(C)C)cc1 [compound 20]
7.92

---

tested on: cholesterol in serum; assay: Effect of reducing lipid level in blood: percent inhibition of cholesterol in serum of hamsters fed 1% cholesterol and 0.5% cholic acid diet; assay type: in vivo, Male golden Syrian hamsters; conditions: Mesocricetus auratus, po, 120 h, orally once a day for 5 days, relative to control group
I would appreciate it if you labelled entries fulfilled when inhibition in vivo at 25 mg/kg is 60% or higher, otherwise not fulfilled.

Solved entries:
CC(C)c1cccc(C(C)C)c1NC(=O)Nc1ccc(C(C)(C)C)cc1 [Compound No. 26, reference compound]; not fulfilled
CCCCCCCc1ccc(NC(=O)Nc2c(C(C)C)cccc2C(C)C)cc1 [compound 18]; not fulfilled
CCCCCCCCCc1ccc(NC(=O)Nc2c(C(C)C)cccc2C(C)C)cc1 [Compound No. 19]; fulfilled

Now consider the entry below.
Identify whether the reported inhibition in vivo at 25 mg/kg of the following compound is 60% or greater: CCCCCCCCc1ccc(NC(=O)Nc2c(OC)cccc2OC)cc1 [compound 12]
not fulfilled
